- Tested on: S. aureus 43300
- protocol-text: Antibiotic MIC by microdilution with or without sub-MIC polymer
- Type: cell-based, Staphylococcus aureus
- test-context: +¼ MIC (1.6 μM) C12KKNC12KNH2
The reader will find reported Antibiotic MIC values listed item by item below.
Number in µg/mL, nothing else.

Previously resolved entries follow.
structure-as-smiles: CCN1CCN(C(=O)N[C@@H](C(=O)N[C@@H]2C(=O)N3[C@@H]2SC(C)(C)[C@@H]3C(=O)O)c2ccccc2)C(=O)C1=O
endpoint-unit: µg/mL
Antibiotic MIC: 32
//
structure-as-smiles: O=C(O)c1cn(C2CC2)c2cc(N3CCNCC3)c(F)cc2c1=O
endpoint-unit: µg/mL
Antibiotic MIC: 0.5
//
structure-as-smiles: CC1(C)S[C@@H]2[C@H](NC(=O)Cc3ccccc3)C(=O)N2[C@H]1C(=O)O
endpoint-unit: µg/mL
Antibiotic MIC: 4
//
structure-as-smiles: Cc1onc(-c2ccccc2)c1C(=O)N[C@@H]1C(=O)N2[C@@H]1SC(C)(C)[C@@H]2C(=O)O
endpoint-unit: µg/mL
Antibiotic MIC: 0.5

# Antibiotic MIC of CN(C)[C@@H]1C(O)=C(C(N)=O)C(=O)[C@@]2(O)C(O)=C3C(=O)c4c(O)cccc4[C@@](C)(O)[C@H]3C[C@@H]12 = 0.5

----------
- Test system: MRSA 15852
- Type: cell-based, Staphylococcus aureus
- test-context: S. aureus 15852; no polymer (None), Table 8
The reader will find reported Antibiotic MIC values listed item by item below.
Number in µg/mL, nothing else.

structure-as-smiles: CCN1CCN(C(=O)N[C@@H](C(=O)N[C@@H]2C(=O)N3[C@@H]2SC(C)(C)[C@@H]3C(=O)O)c2ccccc2)C(=O)C1=O
Antibiotic MIC [µg/mL]: 128

structure-as-smiles: CC1(C)S[C@@H]2[C@H](NC(=O)Cc3ccccc3)C(=O)N2[C@H]1C(=O)O
Antibiotic MIC [µg/mL]: 32

# next molecule below
# Antibiotic MIC of O=C(O)c1cn(C2CC2)c2cc(N3CCNCC3)c(F)cc2c1=O = 16

----------
The reader will find reported Antibiotic MIC values listed item by item below.
- System: P. aeruginosa 8732
- protocol-text: Antibiotic MIC by microdilution with or without sub-MIC polymer
- Assay type: cell-based, Pseudomonas aeruginosa
- test-context: P. aeruginosa 8732; no polymer (None), Table 10
Number in µg/mL, nothing else.

structure-as-smiles: CC1(C)S[C@@H]2[C@H](NC(=O)Cc3ccccc3)C(=O)N2[C@H]1C(=O)O
metric: Antibiotic MIC
recorded-measurement: 512

# next molecule below
Item CCN1CCN(C(=O)N[C@@H](C(=O)N[C@@H]2C(=O)N3[C@@H]2SC(C)(C)[C@@H]3C(=O)O)c2ccccc2)C(=O)C1=O ; assay system P. aeruginosa 8732; Antibiotic MIC reported as 256

----------
- System: S. aureus 15819
- protocol-text: Antibiotic MIC by microdilution with or without sub-MIC polymer
- Format: cell-based, Staphylococcus aureus
- test-context: S. aureus 15819; +½ MIC (3.12 μM) C12(5-ene)KKNC12KNH2
The reader will find reported Antibiotic MIC values listed item by item below.
Number in µg/mL, nothing else.

Previously resolved entries follow.
structure-as-smiles: CC[C@H]1OC(=O)[C@H](C)[C@@H](O[C@H]2C[C@@](C)(OC)[C@@H](O)[C@H](C)O2)[C@H](C)[C@@H](O[C@@H]2O[C@H](C)C[C@H](N(C)C)[C@H]2O)[C@](C)(O)C[C@@H](C)C(=O)[C@H](C)[C@@H](O)[C@]1(C)O
recorded-measurement: 0.25
//
structure-as-smiles: Cc1onc(-c2ccccc2)c1C(=O)N[C@@H]1C(=O)N2[C@@H]1SC(C)(C)[C@@H]2C(=O)O
recorded-measurement: 1
//
structure-as-smiles: CC1(C)S[C@@H]2[C@H](NC(=O)Cc3ccccc3)C(=O)N2[C@H]1C(=O)O
recorded-measurement: 4

Item CCN1CCN(C(=O)N[C@@H](C(=O)N[C@@H]2C(=O)N3[C@@H]2SC(C)(C)[C@@H]3C(=O)O)c2ccccc2)C(=O)C1=O ; assay system S. aureus 15819; Antibiotic MIC reported as 4
